EXPERIMENTAL SYSTEM: ETA (Oryctolagus cuniculus, UniProt A5A8K3)
Sequence (A5A8K3 21-427): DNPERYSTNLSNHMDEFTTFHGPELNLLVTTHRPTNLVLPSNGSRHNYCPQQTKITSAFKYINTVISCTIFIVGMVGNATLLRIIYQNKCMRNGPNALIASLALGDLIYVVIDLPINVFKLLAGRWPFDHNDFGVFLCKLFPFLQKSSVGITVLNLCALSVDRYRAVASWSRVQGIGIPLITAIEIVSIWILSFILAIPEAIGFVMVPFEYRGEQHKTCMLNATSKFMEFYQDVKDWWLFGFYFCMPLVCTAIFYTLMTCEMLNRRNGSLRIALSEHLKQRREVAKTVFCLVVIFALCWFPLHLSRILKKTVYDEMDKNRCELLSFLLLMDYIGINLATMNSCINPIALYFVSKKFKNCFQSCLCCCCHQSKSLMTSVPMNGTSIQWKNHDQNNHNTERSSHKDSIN
EXPERIMENTAL SETUP: ERBA-A IC50, [125I]-ET-1, rabbit renal artery vascular smooth muscle cells
Recorded IC50 by entry
MEASURE NAME: IC50 (nM)

>  <COMPOUND>
COc1ccc(C2(O)OC(=O)C(c3cc(OC)c4c(c3)OCO4)=C2Cc2cc(OC)c(OC)c(OC)c2)cc1 (stereo not drawn)

>  <NUMERIC RESULT>
0.25

$$$$
>  <COMPOUND>
COc1ccc(C2(O)OC(=O)C(c3ccc4c(c3)OCO4)=C2CC2=CC[C@H]3C[C@@H]2C3(C)C)cc1 (stereo partly drawn)

>  <NUMERIC RESULT>
540

$$$$
>  <COMPOUND>
COc1ccc(C(=O)/C(Cc2ccccc2)=C(\C(=O)O)c2ccc3c(c2)OCO3)cc1 [Example 171]

>  <NUMERIC RESULT>
39

$$$$
>  <COMPOUND>
COc1ccc(C2(O)OC(=O)C(c3ccc4c(c3)OCO4)=C2Cc2cc(OC)c(OC)c(OC)c2)cc1 (stereo not drawn)

>  <NUMERIC RESULT>
0.6

$$$$
>  <COMPOUND>
COc1ccc(C2(O)OC(=O)C(c3ccc4c(c3)OCO4)=C2Cc2cccc(C(F)(F)F)c2)cc1 (stereo not drawn)

>  <NUMERIC RESULT>
20

$$$$
>  <COMPOUND>
COc1ccc(C2=C(Cc3ccc(Cl)c(Cl)c3)C(O)(c3ccc(Cl)cc3)OC2=O)cc1OC (racemic)

>  <NUMERIC RESULT>
21000

$$$$
>  <COMPOUND>
O=C1OC(O)(c2ccc(Cl)cc2)C(Cc2ccsc2)=C1c1ccc2c(c1)OCO2 (stereo not drawn)

>  <NUMERIC RESULT>
1200

$$$$
>  <COMPOUND>
COc1ccc(C2(O)OC(=O)C(c3ccc4c(c3)OCO4)=C2CC2CCCC2)cc1 (stereo not drawn)

>  <NUMERIC RESULT>
8.4

$$$$
>  <COMPOUND>
COc1ccc(C2(O)OC(=O)C(c3cc(OC)cc(OC)c3)=C2Cc2cccc(C=O)c2)cc1 (stereo not drawn)

>  <NUMERIC RESULT>
24

$$$$
>  <COMPOUND>
Cn1cc(CC2=C(c3ccc4c(c3)OCO4)C(=O)OC2(O)c2ccc(Cl)cc2)c2ccccc21 (racemic)

>  <NUMERIC RESULT>
2400

$$$$
>  <COMPOUND>
COc1ccc(CC2=C(c3cc(OC)cc(OC)c3)C(=O)OC2(O)c2ccc(OC)cc2)cc1 (stereo not drawn)

>  <NUMERIC RESULT>
15

$$$$
>  <COMPOUND>
COc1ccc(C2(O)OC(=O)C(c3ccc4c(c3)OCO4)=C2Cc2ccccc2)cc1C (racemic)

>  <NUMERIC RESULT>
12

$$$$
>  <COMPOUND>
CC(C)c1ccc(CC2=C(c3ccc(Cl)c(Cl)c3)C(=O)OC2(O)c2ccc(Cl)cc2)cc1 (stereo not drawn)

>  <NUMERIC RESULT>
540

$$$$
>  <COMPOUND>
COc1ccc(C2(O)OC(=O)C(c3ccc4c(c3)OCO4)=C2Cc2ccc(OC)c(OC)c2)cc1 (stereo not drawn)

>  <NUMERIC RESULT>
4.8

$$$$
>  <COMPOUND>
C=CCOc1cc(OC)ccc1CC1=C(c2ccc3c(c2)OCO3)C(=O)OC1(O)c1ccc(OC)cc1 (stereo not drawn)

>  <NUMERIC RESULT>
10

$$$$
